molecular target: NaV1.3 (Homo sapiens); assay: VIPR optical membrane potential assay, NaV1.3 inhibition; type: cell-based; parameters: expressed in transfected cells; host or cells: HEK293; conditions: activity against NaV 1.3 channel
Sequence (Q9NY46 whole entry): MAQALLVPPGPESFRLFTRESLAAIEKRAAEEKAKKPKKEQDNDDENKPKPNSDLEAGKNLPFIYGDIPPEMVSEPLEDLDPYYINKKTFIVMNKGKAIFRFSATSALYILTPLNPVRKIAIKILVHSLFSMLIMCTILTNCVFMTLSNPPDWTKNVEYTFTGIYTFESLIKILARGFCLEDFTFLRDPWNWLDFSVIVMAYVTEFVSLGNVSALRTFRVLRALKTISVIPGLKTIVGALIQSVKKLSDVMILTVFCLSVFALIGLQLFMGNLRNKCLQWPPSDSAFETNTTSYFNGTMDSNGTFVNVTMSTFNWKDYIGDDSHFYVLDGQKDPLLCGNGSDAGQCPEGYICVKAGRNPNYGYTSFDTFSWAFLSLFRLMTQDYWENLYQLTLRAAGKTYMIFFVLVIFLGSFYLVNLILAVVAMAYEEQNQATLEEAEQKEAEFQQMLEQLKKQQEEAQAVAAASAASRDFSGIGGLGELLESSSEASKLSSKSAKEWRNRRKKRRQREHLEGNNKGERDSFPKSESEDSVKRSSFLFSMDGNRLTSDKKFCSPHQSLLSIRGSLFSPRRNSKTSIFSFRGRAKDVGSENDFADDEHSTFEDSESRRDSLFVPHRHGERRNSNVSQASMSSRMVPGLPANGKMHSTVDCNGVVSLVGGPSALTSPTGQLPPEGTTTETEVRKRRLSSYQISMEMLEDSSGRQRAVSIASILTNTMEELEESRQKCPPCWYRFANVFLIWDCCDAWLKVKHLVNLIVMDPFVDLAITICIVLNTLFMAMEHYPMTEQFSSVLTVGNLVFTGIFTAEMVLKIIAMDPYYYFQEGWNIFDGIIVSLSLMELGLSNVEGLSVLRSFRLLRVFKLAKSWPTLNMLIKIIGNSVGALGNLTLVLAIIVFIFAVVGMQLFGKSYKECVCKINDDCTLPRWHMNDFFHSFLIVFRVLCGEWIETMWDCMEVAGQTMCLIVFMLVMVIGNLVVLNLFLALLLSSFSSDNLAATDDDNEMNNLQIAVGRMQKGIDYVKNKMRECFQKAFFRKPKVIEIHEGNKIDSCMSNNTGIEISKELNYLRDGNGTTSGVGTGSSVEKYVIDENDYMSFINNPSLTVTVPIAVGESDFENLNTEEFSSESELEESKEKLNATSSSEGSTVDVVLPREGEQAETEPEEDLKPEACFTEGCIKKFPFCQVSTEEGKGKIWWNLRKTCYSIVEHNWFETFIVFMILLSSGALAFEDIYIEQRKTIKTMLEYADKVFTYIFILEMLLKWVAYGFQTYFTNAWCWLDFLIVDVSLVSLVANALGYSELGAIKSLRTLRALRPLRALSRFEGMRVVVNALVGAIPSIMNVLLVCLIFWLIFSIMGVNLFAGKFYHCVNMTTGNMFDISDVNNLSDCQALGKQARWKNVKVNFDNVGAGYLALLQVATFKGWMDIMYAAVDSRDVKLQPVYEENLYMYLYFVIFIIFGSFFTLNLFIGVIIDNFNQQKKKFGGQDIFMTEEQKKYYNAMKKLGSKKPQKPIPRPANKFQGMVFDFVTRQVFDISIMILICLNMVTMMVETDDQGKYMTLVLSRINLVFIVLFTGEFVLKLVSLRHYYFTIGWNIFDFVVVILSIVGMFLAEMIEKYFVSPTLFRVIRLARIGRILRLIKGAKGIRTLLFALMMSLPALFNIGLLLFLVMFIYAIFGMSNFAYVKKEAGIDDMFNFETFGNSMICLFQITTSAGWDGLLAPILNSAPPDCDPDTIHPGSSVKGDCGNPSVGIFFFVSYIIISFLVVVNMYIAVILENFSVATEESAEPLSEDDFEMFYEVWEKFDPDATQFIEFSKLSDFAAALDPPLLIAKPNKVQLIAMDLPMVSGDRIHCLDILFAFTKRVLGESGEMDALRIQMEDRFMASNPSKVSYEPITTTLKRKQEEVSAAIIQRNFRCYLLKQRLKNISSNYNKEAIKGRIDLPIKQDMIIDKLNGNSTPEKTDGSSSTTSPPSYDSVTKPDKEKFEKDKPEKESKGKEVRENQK
pIC50: −log10 of the molar value.
Outcome Measure: pIC50

Solved entries (count: 7):
Compound	pIC50
COc1ccc(NCCN2CCc3cc(S(=O)(=O)Nc4nccs4)ccc32)cc1	< 5.30
O=C(CNCc1ccncc1)N1CCc2cc(S(=O)(=O)Nc3nccs3)ccc21	< 5.30
Cc1nnc(NS(=O)(=O)c2ccc3c(c2)CN(C(=O)COc2ccnc4c(C(F)(F)F)cccc24)CC3)s1	< 5.30
O=C(c1ccc(C(F)(F)F)cc1)N1CCCc2cc(S(=O)(=O)Nc3nccs3)ccc21	5.30 to 5.70
O=C(CN1CCCc2cc(Cl)ccc21)N1CCc2cc(S(=O)(=O)Nc3ccncn3)ccc21	< 5.30
CC(Oc1cccc(Cl)c1)C(=O)N1CCc2cc(S(=O)(=O)Nc3nccs3)ccc21 (centres unmarked)	> 5.70
O=C(COc1ccccc1Cl)N1CCc2cc(S(=O)(=O)Nc3nccs3)ccc21	> 5.70

Moving on to the next compound.
Lab entry: NaV1.3 (Homo sapiens) assay, compound CC(Oc1ccc(OC(F)(F)F)cc1)C(=O)N1Cc2ccc(S(=O)(=O)Nc3nccs3)cc2C1 (centres unmarked) , pIC50 = > 5.70
